Readings of IC50 for the listed compounds
Target: mTORC1 (Homo sapiens, UniProt P42345+P62942)
Construct: endogenous in cells; host or cells: PC3 cells (human prostate adenocarcinoma)
Assay: Inhibition assay for mTORC1: phosphorylation of pS6K at Thr389, AlphaLISA in PC3 cells
Format: cell-based
Conditions: PC3 cells, treated 24 hours, pS6K Thr389, AlphaLISA; C16 diastereomer mixtures not separated; read-out: pIC50 mTORC1 (converted)

The cases that follow already have their IC50 on record.
INPUT: Lab request: please report IC50 under test system mTORC1 (Homo sapiens, UniProt P42345+P62942) for CO[C@@H]1C[C@H](C[C@@H](C)[C@@H]2CC(=O)[C@H](C)/C=C(\C)[C@@H](O)[C@@H](OC)C(=O)[C@H](C)C[C@H](C)/C=C/C=C/C=C(\C)C(OCCO)C[C@@H]3CC[C@@H](C)[C@@](O)(O3)C(=O)C(=O)N3CCCC[C@H]3C(=O)O2)CC[C@H]1OCCCN1CC2(COC2)C1 (mixture of isomers) [Compound 78]
OUTPUT: 0.316 to 3.16 nM

INPUT: Lab request: please report IC50 under test system mTORC1 (Homo sapiens, UniProt P42345+P62942) for CO[C@@H]1C[C@H](C[C@@H](C)[C@@H]2CC(=O)[C@H](C)/C=C(\C)[C@@H](O)[C@@H](OC)C(=O)[C@H](C)C[C@H](C)/C=C/C=C/C=C(\C)C(OCCO)C[C@@H]3CC[C@@H](C)[C@@](O)(O3)C(=O)C(=O)N3CCCC[C@H]3C(=O)O2)CC[C@H]1OCCN1CCCCC1 (mixture of isomers) [Compound 61]
OUTPUT: 0.316 to 3.16 nM

Further cases:
INPUT: Lab request: please report IC50 under test system mTORC1 (Homo sapiens, UniProt P42345+P62942) for COCCOC1C[C@@H]2CC[C@@H](C)[C@@](O)(O2)C(=O)C(=O)N2CCCC[C@H]2C(=O)O[C@H]([C@H](C)C[C@@H]2CC[C@@H](OCCCN3CCC(C(C)(C)O)CC3)[C@H](OC)C2)CC(=O)[C@H](C)/C=C(\C)[C@@H](O)[C@@H](OC)C(=O)[C@H](C)C[C@H](C)/C=C/C=C/C=C/1C (mixture of isomers) [Compound 74]
OUTPUT: < 0.316 nM

INPUT: Lab request: please report IC50 under test system mTORC1 (Homo sapiens, UniProt P42345+P62942) for CO[C@@H]1C[C@H](C[C@@H](C)[C@@H]2CC(=O)[C@H](C)/C=C(\C)[C@@H](O)[C@@H](OC)C(=O)[C@H](C)C[C@H](C)/C=C/C=C/C=C(\C)C(OCCCO)C[C@@H]3CC[C@@H](C)[C@@](O)(O3)C(=O)C(=O)N3CCCC[C@H]3C(=O)O2)CC[C@H]1OCCCc1ccccc1 (mixture of isomers) [Compound 67]
OUTPUT: 0.316 to 3.16 nM

INPUT: Lab request: please report IC50 under test system mTORC1 (Homo sapiens, UniProt P42345+P62942) for CO[C@@H]1C[C@H](C[C@@H](C)[C@@H]2CC(=O)[C@H](C)/C=C(\C)[C@@H](O)[C@@H](OC)C(=O)[C@H](C)C[C@H](C)/C=C/C=C/C=C(\C)C(OCCO)C[C@@H]3CC[C@@H](C)[C@@](O)(O3)C(=O)C(=O)N3CCCC[C@H]3C(=O)O2)CC[C@H]1OCCCN1CCO[C@H](C)C1 (mixture of isomers) [Compound 13]
OUTPUT: < 0.316 nM
